# System: giant foxtail (Setaria faberii)
# ASSAY EXPLANATION: Test B pre-/postemergence plant response
# Type: in vivo
# TEST SETTINGS: Preemergence, 31 g ai/ha; scale 0 to 100 (0 no effect, 100 complete control)
MEASURED PROPERTY: Plant response rating, Foxtail, Giant
Reply with just the number.

Solved entries:
// query Plant response rating, Foxtail, Giant value for entry O=C1CCCC([O-])=C1C(=O)c1cnc(-c2ccccc2)n(-c2ccccc2)c1=O.[K+]
// result 0

// query Ok, now CC(C)Cc1ncc(C(=O)C2=C(O)CCCC2=O)c(=O)n1-c1ccccc1
// result 0

// query Try the molecule CCn1c(-c2ccccc2)ncc(C(=O)C2=C(O)CCCC2=O)c1=O
// result 0

// query Same read-out for COCCCn1c(-c2cc(F)cc(F)c2)ncc(C(=O)C2=C(O)C3CCC(C3)C2=O)c1=O (centres unmarked) ?
// result 60

Others:
// query Need Plant response rating, Foxtail, Giant, item O=C1CCCC(O)=C1C(=O)c1cnc(-c2cccc(Cl)c2)n(-c2ccccc2)c1=O
// result 15

* * *

# Tested on: johnsongrass (Sorghum halepense)
# ASSAY EXPLANATION: Test B pre-/postemergence plant response
# Format: in vivo
# TEST SETTINGS: 31 g ai/ha, postemergence; scale 0 to 100, 0 is no effect, 100 is complete control
# From the text: […] Treated plants and controls were maintained in a greenhouse for 13 to 15 days, after which time all treated plants were visually evaluated and compared to controls. […]
MEASURED PROPERTY: Plant response rating, Johnsongrass
Give your answer as a number; write no unit.

Sample answers from the record:
// query Under johnsongrass (Sorghum halepense): Plant response rating, Johnsongrass value of CC(C)Cc1ncc(C(=O)C2=C(O)CCCC2=O)c(=O)n1-c1ccccc1 ?
// result 10

// query Then what about the compound CCCn1c(-c2ccsc2)ncc(C(=O)C2=C(O)CCCC2=O)c1=O ?
// result 10

Others:
// query // map O=C1CCCC(O)=C1C(=O)c1cnc(-c2ccccc2)n(C2CC2)c1=O to recorded Plant response rating, Johnsongrass (system: johnsongrass (Sorghum halepense))
// result 10

* * *

# Test system: giant foxtail (Setaria faberii)
# ASSAY EXPLANATION: Test B pre-/postemergence plant response
# Format: in vivo
# TEST SETTINGS: 31 g ai/ha, postemergence; scale 0 to 100, 0 is no effect, 100 is complete control
MEASURED PROPERTY: Plant response rating, Foxtail, Giant
Please reply with the value in numeric form only.

Below are worked cases with known answers.
// query Plant response rating, Foxtail, Giant of CCCCCCn1c(-c2ccccc2)ncc(C(=O)C2=C(O)CCCC2=O)c1=O [Compound 94] on giant foxtail (Setaria faberii)?
// result 65

// query Try this compound too: CCCCc1ncc(C(=O)C2=C(O)CCCC2=O)c(=O)n1-c1ccccc1C [Compound 62]
// result 55

// next item, Plant response rating, Foxtail, Giant requested
// query Identify the measured Plant response rating, Foxtail, Giant of O=C1CCCC(O)=C1C(=O)c1cnc(-c2ccsc2)n(C2CCCCC2)c1=O [Compound 99] for giant foxtail (Setaria faberii).
// result 75

* * *

Entries and their Plant response rating, Flood, Barnyardgrass
# System: barnyardgrass (Echinochloa crus-galli)
# ASSAY EXPLANATION: Test B flooded paddy test
# Type: in vivo
# TEST SETTINGS: 250 g ai/ha; flooded paddy test; visual rating on 0 to 100 scale (0 no effect, 100 complete control) after 13 to 15 days
Output spec: single numeric token, no unit.

// query Returns the measured Plant response rating, Flood, Barnyardgrass for the input compound. Input: CCCCCCn1c(-c2ccccc2)ncc(C(=O)C2=C(O)CCCC2=O)c1=O
// result 60

More entries:
// query Look at this compound and give its reported Plant response rating, Flood, Barnyardgrass. O=C1CCCC(O)=C1C(=O)c1cnc(C2CC2)n(-c2ccccc2)c1=O
// result 60

// query Okay, and CCCn1c(-c2ccccc2)ncc(C(=O)C2=C(O)CCCC2=O)c1=O ?
// result 60
